Kindly state percent of parent for each of the entries shown.
B1: TMEM59 peptide (residues 268–280), wild type [modified: long spacer (Tds) at the N-terminal end, used for immobilisation; long spacer (Tds) at the N-terminal end, used for immobilisation] [not stated] / GST-HA-ATG16L1(231–607) … (parent)
chain 1: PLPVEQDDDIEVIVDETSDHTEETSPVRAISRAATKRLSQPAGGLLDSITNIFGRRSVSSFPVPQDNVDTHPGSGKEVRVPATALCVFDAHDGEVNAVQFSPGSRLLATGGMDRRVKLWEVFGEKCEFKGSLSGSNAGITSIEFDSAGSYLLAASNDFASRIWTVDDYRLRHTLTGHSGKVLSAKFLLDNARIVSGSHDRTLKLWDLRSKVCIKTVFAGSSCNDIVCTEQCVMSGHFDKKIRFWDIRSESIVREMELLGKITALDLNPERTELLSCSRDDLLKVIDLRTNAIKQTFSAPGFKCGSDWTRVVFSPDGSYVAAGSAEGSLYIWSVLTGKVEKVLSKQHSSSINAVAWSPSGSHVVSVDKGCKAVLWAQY
chain 2: YVPSEKLSIYGDL

- Variants of: B1
- assay summary: peptide microarray
- protocol conditions: with GST-HA-ATG16L1(231–607) [human]; ligand 800, 600, 400 nM; parent: 100
Numbers only, in % WT.

Example entries and their recorded answers appear below.
# mutation list, reported value
records = [
    ("chain 2 S4I", 155),
    ("chain 2 S4W", 187),
    ("chain 2 L13A", 50),
    ("chain 2 D12Q", 105),
    ("chain 2 I9K", 149),
    ("chain 2 D12I", 129),
    ("chain 2 I9M", 66),
    ("chain 2 D12N", 128),
    ("chain 2 L7H", 103),
    ("chain 2 E5P", 97),
]

Any idea what its percent of parent is? The variant is chain 2 V2F
177

The reported numbers originate from paper PMC7679444.
